- EXPERIMENTAL_SYSTEM: F IX (Homo sapiens, UniProt P00740)
- Construct: from tissue; host or cells: human citrated blood plasma
- Sequence (P00740 47-461): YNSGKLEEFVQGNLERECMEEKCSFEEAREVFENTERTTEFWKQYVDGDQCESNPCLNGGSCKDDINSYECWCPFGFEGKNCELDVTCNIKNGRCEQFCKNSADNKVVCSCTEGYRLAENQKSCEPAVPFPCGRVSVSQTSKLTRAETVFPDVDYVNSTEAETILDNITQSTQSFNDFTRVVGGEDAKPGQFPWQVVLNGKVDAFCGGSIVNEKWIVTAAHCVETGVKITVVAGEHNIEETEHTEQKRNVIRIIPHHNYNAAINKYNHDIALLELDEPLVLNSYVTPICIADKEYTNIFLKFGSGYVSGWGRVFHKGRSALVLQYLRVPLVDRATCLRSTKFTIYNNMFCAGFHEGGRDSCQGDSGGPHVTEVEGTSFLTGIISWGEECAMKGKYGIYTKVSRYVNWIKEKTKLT
- ASSAY_REMARKS: Coagulation factor IX activity in plasma after reducing agent + iodoacetic acid
- Assay type: biochemical
- MEASUREMENT_CONDITIONS: plasma + 0.4 mg reducing agent, 5 min 37° C., then iodoacetic acid
PARAMETER_MEASURED: Coagulation factor F IX

These solved cases illustrate the format of a correct answer.
O=C(O)CCCCC1CCSS1 (stereo not shown) [lipoic acid]
58 % of control
O[C@H](CS)[C@H](O)CS [DTT, dithiothreitol]
8 % of control
O[C@H](CS)[C@@H](O)CS [DTE, dithioerythritol]
19 % of control

[Q] Supply measured Coagulation factor F IX of OCCS [mercaptoethanol] in your reply.
[A] 35 % of control

###

- EXPERIMENTAL_SYSTEM: F X (Homo sapiens, UniProt P00742)
- Construct: from tissue; host or cells: human citrated blood plasma
- Sequence (P00742 235-488 limits assumed): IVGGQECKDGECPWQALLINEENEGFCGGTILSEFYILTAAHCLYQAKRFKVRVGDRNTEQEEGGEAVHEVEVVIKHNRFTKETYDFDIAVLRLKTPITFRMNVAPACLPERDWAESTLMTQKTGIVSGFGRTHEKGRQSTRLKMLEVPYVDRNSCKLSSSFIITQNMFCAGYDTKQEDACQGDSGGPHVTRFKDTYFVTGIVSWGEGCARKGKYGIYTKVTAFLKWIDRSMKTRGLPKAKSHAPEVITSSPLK
- Sequence (P00742 41-179 limits assumed): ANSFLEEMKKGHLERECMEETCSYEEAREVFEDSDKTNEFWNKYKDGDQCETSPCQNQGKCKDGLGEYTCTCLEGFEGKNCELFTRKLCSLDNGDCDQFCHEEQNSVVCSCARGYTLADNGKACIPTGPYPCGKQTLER
- ASSAY_REMARKS: Coagulation factor X activity in plasma after reducing agent + iodoacetic acid
- Format: biochemical
- MEASUREMENT_CONDITIONS: plasma + 0.4 mg reducing agent, 5 min 37° C., then iodoacetic acid
PARAMETER_MEASURED: Coagulation factor F X

O=C(O)CCCCC1CCSS1 (stereo not shown)
32 % of control
OCCS
37 % of control

[Q] Supply measured Coagulation factor F X of O[C@H](CS)[C@@H](O)CS in your reply.
[A] 2 % of control

[Q] Supply measured Coagulation factor F X of O[C@H](CS)[C@H](O)CS in your reply.
[A] 0 % of control

###

- EXPERIMENTAL_SYSTEM: F XI (Homo sapiens)
- Construct: from tissue; host or cells: human citrated blood plasma
- Sequence (P03951 19-625): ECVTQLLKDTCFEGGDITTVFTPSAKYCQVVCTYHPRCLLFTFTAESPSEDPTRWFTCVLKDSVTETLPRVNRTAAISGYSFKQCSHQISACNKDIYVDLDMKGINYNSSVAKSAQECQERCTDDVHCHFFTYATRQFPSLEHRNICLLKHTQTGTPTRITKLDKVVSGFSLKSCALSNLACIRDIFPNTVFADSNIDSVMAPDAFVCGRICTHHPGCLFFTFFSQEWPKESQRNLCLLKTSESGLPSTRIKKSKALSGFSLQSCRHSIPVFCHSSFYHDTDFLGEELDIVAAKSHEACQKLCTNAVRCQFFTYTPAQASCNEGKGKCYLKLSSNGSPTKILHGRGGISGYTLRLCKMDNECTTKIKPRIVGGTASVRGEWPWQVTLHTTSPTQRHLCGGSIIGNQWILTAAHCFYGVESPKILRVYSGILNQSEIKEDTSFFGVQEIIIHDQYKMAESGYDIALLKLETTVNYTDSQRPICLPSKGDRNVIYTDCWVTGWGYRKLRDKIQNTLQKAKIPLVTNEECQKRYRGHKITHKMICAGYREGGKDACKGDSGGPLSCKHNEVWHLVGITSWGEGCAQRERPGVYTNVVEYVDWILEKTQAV
- ASSAY_REMARKS: Coagulation factor XI activity in plasma after reducing agent + iodoacetic acid
- Type: biochemical
- MEASUREMENT_CONDITIONS: plasma + 0.4 mg reducing agent, 5 min 37° C., then iodoacetic acid
The compounds listed here are annotated with their Coagulation factor F XI.

These solved cases illustrate the format of a correct answer.
OCCS
62 % of control
O=C(O)CCCCC1CCSS1 (stereo not shown)
39 % of control
O[C@H](CS)[C@@H](O)CS
0 % of control

Now for the compound whose Coagulation factor F XI we want.
[Q] Supply measured Coagulation factor F XI of O[C@H](CS)[C@H](O)CS in your reply.
[A] 0 % of control

###

- EXPERIMENTAL_SYSTEM: F VII (Homo sapiens)
- Construct: from tissue; host or cells: human citrated blood plasma
- Sequence (P08709 61-466): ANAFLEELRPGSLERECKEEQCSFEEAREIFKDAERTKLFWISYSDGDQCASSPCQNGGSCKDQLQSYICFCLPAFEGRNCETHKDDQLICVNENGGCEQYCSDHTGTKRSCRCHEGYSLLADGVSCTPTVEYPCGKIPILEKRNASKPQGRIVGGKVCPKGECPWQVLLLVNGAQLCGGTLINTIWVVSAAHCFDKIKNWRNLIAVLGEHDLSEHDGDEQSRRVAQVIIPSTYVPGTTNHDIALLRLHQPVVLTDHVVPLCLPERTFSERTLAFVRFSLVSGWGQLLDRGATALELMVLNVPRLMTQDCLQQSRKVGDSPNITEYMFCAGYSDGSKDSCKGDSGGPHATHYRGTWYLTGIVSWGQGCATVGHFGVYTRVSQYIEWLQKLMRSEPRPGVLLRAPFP
- ASSAY_REMARKS: Coagulation factor VII activity in plasma after reducing agent + iodoacetic acid
- Format: biochemical
- MEASUREMENT_CONDITIONS: plasma + 0.4 mg reducing agent, 5 min 37° C., then iodoacetic acid
PARAMETER_MEASURED: Coagulation factor F VII

These solved cases illustrate the format of a correct answer.
O[C@H](CS)[C@@H](O)CS
48 % of control
O[C@H](CS)[C@H](O)CS
6 % of control

[Q] Provide Coagulation factor F VII, tested on F VII (Homo sapiens), for O=C(O)CCCCC1CCSS1 (stereo not shown) .
[A] 285 % of control

[Q] Provide Coagulation factor F VII, tested on F VII (Homo sapiens), for OCCS .
[A] 29 % of control

###

The molecules listed here are annotated with their Coagulation factor F V.
- EXPERIMENTAL_SYSTEM: F V (Homo sapiens, UniProt P12259)
- Construct: from tissue; host or cells: human citrated blood plasma
- Sequence (P12259 29-2224): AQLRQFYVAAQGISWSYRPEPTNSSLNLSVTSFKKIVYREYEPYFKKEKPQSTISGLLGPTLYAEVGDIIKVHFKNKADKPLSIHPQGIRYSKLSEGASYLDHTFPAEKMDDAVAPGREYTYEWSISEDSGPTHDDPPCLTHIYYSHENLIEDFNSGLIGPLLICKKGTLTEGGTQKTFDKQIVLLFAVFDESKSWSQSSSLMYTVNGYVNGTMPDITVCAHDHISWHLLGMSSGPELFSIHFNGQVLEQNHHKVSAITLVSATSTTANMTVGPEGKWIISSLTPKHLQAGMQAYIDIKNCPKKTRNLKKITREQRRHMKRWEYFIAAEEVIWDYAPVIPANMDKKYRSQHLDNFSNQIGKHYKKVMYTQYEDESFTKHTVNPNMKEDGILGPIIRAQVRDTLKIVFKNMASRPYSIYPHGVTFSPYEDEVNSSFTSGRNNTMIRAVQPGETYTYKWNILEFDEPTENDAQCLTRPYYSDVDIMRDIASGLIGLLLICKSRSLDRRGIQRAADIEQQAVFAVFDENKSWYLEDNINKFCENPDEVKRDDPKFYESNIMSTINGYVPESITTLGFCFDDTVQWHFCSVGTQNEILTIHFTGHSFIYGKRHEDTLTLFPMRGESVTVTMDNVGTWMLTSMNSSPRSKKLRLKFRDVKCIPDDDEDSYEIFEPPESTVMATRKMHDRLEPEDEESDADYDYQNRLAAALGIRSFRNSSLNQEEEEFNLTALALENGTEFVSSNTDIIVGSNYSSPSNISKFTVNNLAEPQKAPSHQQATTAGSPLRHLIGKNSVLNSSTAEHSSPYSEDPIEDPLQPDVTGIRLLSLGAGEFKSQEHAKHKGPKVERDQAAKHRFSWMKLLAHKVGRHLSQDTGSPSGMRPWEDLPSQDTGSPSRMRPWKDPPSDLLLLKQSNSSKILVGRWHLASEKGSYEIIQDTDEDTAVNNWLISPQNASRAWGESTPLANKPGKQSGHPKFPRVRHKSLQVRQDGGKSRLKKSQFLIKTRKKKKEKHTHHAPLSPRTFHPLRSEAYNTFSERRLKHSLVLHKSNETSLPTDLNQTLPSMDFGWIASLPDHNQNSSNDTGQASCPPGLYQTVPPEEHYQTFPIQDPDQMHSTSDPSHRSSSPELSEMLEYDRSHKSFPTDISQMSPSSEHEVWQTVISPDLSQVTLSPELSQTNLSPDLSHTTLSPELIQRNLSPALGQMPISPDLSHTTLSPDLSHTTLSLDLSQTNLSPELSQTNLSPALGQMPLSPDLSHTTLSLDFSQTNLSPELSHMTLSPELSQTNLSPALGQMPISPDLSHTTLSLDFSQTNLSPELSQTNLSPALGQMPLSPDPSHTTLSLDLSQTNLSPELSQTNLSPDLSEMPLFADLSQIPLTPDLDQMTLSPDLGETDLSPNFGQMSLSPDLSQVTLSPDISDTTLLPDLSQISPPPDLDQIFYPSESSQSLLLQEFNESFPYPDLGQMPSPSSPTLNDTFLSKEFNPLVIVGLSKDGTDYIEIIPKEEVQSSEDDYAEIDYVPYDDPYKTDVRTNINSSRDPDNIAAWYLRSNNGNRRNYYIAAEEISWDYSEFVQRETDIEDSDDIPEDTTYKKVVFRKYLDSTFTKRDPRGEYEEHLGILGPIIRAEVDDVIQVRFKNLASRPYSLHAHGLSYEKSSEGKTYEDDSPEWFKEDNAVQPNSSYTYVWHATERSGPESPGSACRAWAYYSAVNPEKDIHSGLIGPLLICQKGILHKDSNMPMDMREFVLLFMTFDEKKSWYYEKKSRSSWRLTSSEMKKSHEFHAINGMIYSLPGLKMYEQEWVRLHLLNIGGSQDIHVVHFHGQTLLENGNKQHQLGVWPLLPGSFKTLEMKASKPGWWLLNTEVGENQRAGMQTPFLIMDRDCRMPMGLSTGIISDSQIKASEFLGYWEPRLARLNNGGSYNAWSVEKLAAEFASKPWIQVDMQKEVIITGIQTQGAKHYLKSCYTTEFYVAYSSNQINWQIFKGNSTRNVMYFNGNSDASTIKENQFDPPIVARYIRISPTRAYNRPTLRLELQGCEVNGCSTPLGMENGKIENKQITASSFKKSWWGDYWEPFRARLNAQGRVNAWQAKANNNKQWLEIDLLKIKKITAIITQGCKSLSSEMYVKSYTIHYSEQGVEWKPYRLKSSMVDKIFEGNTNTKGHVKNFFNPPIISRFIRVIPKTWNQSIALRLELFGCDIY
- ASSAY_REMARKS: Coagulation factor V activity in plasma after reducing agent + iodoacetic acid
- Type: biochemical
- MEASUREMENT_CONDITIONS: plasma + 0.4 mg reducing agent, 5 min 37° C., then iodoacetic acid
- Description: Human blood with anti-coagulating agent (9 parts blood+1 part 3.8% trisodium citrate) is centrifuged and the following tests with plasma were carried out: The plasma is divided into 8 ml portions, which are preheated at 37° C. for 5 min. DTT is added in different concentrations, see table 1 below, and is incubated for 5 min. at 37° C. Then iodoacetic acid, 3 mol per mol DTT, is added, and incubation takes place for 15 min. at 37° C. […]

These solved cases illustrate the format of a correct answer.
O[C@H](CS)[C@H](O)CS
85 % of control
O[C@H](CS)[C@@H](O)CS
90 % of control
O=C(O)CCCCC1CCSS1 (stereo not shown)
215 % of control

[Q] Supply measured Coagulation factor F V of OCCS in your reply.
[A] 84 % of control
